B1: IKZF1 (parent)
chain: HIKLHSGEKPFKCHLCNYACRRRD

# Variants of: B1
# protocol: protein stability index of a GFP-peptide fusion (GPS, HEK-293T) (PSI 1-6); higher = more stable;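 note: lentivirally expressed fusions sorted by FACS into six bins by GFP to DsRed ratio, PSI derived from sequencing read proportions per bin multiplied by bin number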
# protocol_conditions: c terminus: a fixed tail appended
Quick list: protein stability index per entry.

monomer_sequence	measured_attribute	reading
HIKLHSGEKQFKCHLCNYACRRRD	protein stability index	1.43
HIKLHSGEKPFKCHLCNQACRRRD	protein stability index	2.67

Query: protein stability index; subject: HIKLHSGEKPFKCHLCNYADRRRD
1.59

Query: protein stability index; subject: HIKLHSGEKPFKCELCNYACRRRD
1.66
